Give measured protein stability index for each item. Keep answers brief.
# Test system: Saccharomyces cerevisiae
# Test Details: protein stability index of tFT-peptide fusion (C-terminal peptide) (PSI (0-1 scale)); higher = more stable (slower turnover);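 note: PSI is a weighted mean of sequencing reads over stability bins, variants kept only with over 10 reads, mCherry proximal and sfGFP distal, peptide attached via GGGS linker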
# Condition Description: genetic background: wild type; temperature: 37 C
Numbers only.

# batch: return protein stability index for each of the 3 sequences below
1. SRICRTIIQLKQ
2. VGTGVGEGGGVV
3. TPVIPLIRVRDC

OUTPUT:
[0.266, 0.719, 0.456]

Look at each sequence and report its protein stability index.
1. LVGLLASWLRFN
2. SYFSVTLFFTVI
3. VLVVLRSEVSLS
4. FNFFFSSVFLLV
5. LLQCRTGLASGR
6. YTVRRVWLVRSR

OUTPUT:
1. 0.199
2. 0.386
3. 0.371
4. 0.334
5. 0.718
6. 0.493

Quick one: give me protein stability index for each item below, same order please.
1. CMPVYYTVVIRL
2. SLTNYQRLIHVC
3. SGRGFSFVLCTV

OUTPUT:
0.31
0.0936
0.58

* * *

# Tested on: Saccharomyces cerevisiae
# Test Details: protein stability index of tFT-peptide fusion (C-terminal peptide) (PSI (0-1 scale)); higher = more stable (slower turnover)
# Condition Description: genetic background: wild type; temperature: 30 C
Label satisfied when protein stability index is at or above 0.7; anything below gets not satisfied.

Consider the following illustrative entries.
>>> classification("DTHSRARAVLIA")
"not satisfied"
>>> classification("VGFGFVRSLLVG")
"not satisfied"
>>> classification("AAFLGVLCWCWG")
"not satisfied"
>>> classification("DRTRLFLLLIIA")
"not satisfied"
>>> classification("TVWRRIRHACAH")
"not satisfied"

INPUT: Reported protein stability index at or above 0.7? YFICLSLVLFSY
OUTPUT: not satisfied

INPUT: Hi team, for TKRGQMLYQDKE , is the recorded protein stability index at or above 0.7?
OUTPUT: satisfied

* * *

Provide the reported protein stability index of each item.
# Tested on: Saccharomyces cerevisiae
# Test Details: protein stability index of tFT-peptide fusion (C-terminal peptide) (PSI (0-1 scale)); higher = more stable (slower turnover)
# Condition Description: genetic background: wild type; temperature: 30 C
Give bare numbers.

Consider the following illustrative entries.
>>> obs_value("GVPVGVDSFHGV")
0.668
>>> obs_value("DPAHPRPFDCPL")
0.709
>>> obs_value("VTDTSCRAEVEQ")
0.701
>>> obs_value("RQQKTNERRPRT")
0.648
>>> obs_value("IKTVSDFLIVKL")
0.7
>>> obs_value("RLTSPPYSFFLH")
0.644
>>> obs_value("LGAWAGGGASSG")
0.704
>>> obs_value("RGNAMSFVCVGE")
0.658
>>> obs_value("VRVECGVWGSVS")
0.658
>>> obs_value("PVPRCGLPLSLP")
0.685

Dear colleague, could you please provide protein stability index for the sequences listed below?
1. GSDGVGGTVLYA
2. GCFLSERLFTPL

OUTPUT:
0.687
0.73

Hello, I would appreciate it if you could give protein stability index for each entry below.
1. RGATAKGQRRVR
2. KKMKVEKGITQK
3. SLASPPPLLILR
4. ANRLNASYQVSD
5. MFLVLEGIDSRV
6. ESCLVSKFDVIV

OUTPUT:
0.686
0.775
0.346
0.698
0.65
0.656

* * *

# Tested on: Saccharomyces cerevisiae
# Test Details: protein stability index of tFT-peptide fusion (C-terminal peptide) (PSI (0-1 scale)); higher = more stable (slower turnover)
# Condition Description: genetic background: doa10 deletion; temperature: 30 C
Kindly supply the reported protein stability index values for the records listed here.

Solved entries (count: 3):
>>> obs_value("VVFLLGPLVCGG")
0.375
>>> obs_value("SLVLLVASVTGS")
0.347
>>> obs_value("VRWALLGVVVEG")
0.246

For every item in the list below, what is its measured protein stability index?
1. LLGSRFVLIRSL
2. GFFCFLYFVVMF
3. CYSLLFVSVILF

OUTPUT:
[0.114, 0.213, 0.135]

Record protein stability index for all entries; do not skip any.
1. SSCFLLFRVVWR
2. VLWSCCGGVRVR
3. VMWFVLVGLCIL
4. VGCHISAFSDLI
5. AIDLCIAVVGMV
6. LLLRSSRLRVLS
7. GLCGVVVGCWVR

OUTPUT:
[0.292, 0.452, 0.366, 0.66, 0.311, 0.0852, 0.293]

Here are 7 sequences. What values of protein stability index were reported for them?
1. LVRFYGPLPPFP
2. CRHCFVLLYFDY
3. VVVYWGSLKRVC
4. HVCKLAMFQWYF
5. WYMYVRMASFLV
6. IFRVTGFPIYIF
7. PLCLFPPLLVFL

OUTPUT:
[0.656, 0.421, 0.104, 0.287, 0.302, 0.222, 0.453]

Each sequence below has a reported value. Please supply its protein stability index.
1. LLVFSLLRPFLF
2. KRLALVSCSICG
3. PSPRRPPRSRFP

OUTPUT:
0.414
0.321
0.672

* * *

I'd appreciate it if you could supply protein stability index values for the items below.
# Tested on: Saccharomyces cerevisiae
# Test Details: protein stability index of tFT-peptide fusion (C-terminal peptide) (PSI (0-1 scale)); higher = more stable (slower turnover)
# Condition Description: genetic background: cdc53-1; temperature: 37 C

Field: example entries. Status: answers known.
>>> obs_value("LVFLYFHFCCGF")
0.491
>>> obs_value("VYVVLGTVYVTY")
0.325
>>> obs_value("EVFLARKRSMVV")
0.677

Lab note: each sequence below needs its protein stability index filled in.
1. SMFFLFFFFFFF
2. VLAYFCYVVFVI

OUTPUT:
1: 0.356; 2: 0.343

Hey, quick one: what's protein stability index for each of these?
1. VCVFNLTLVGTH
2. EFEIALTLIRSI
3. IFLCRNGAVFIC

OUTPUT:
0.462
0.733
0.799

# batch size: 7; output protein stability index per entry
1. FILLIFLSLLSP
2. RHIPSIILAHVV
3. VVFLLGPLVCGG
4. APPHPPPATFLS
5. FGGICFAVLLCR
6. GTIFLIRVLLFG
7. YFICLSLVLFSY

OUTPUT:
[0.416, 0.67, 0.514, 0.732, 0.262, 0.284, 0.274]

Batch request: protein stability index for each of the following sequences.
1. WYMYVRMASFLV
2. MLTYVVRSLVGY
3. CSLFFFRLIFTL
4. FFLSFICVMLCG
5. RVIRHLRRISNF
6. RRQLVLVLSWVI
7. VMWFVLVGLCIL

OUTPUT:
0.634
0.495
0.185
0.247
0.745
0.508
0.449

Would you mind listing protein stability index for each of the following sequences?
1. SVFGVRARFGSV
2. VFFVLIFLLFLF
3. WFFLFGFVFFFR
4. GGVVLVVVFCCV
5. LFFFVCYLATVK
6. WSVCLLLLGRFC
7. GHSALWQVPRLM
8. WGAHRVRVSRIL

OUTPUT:
1. 0.803
2. 0.448
3. 0.4
4. 0.34
5. 0.347
6. 0.604
7. 0.733
8. 0.768

Give me protein stability index for each of these sequences, listed below.
1. SVECLCLFVACR
2. VWSWFVIYFFFC
3. GPVRSPPSPTPR
4. LVGLLASWLRFN
5. FVGVLVLCVCRC
6. PSPYSLSPYFLV

OUTPUT:
0.254
0.388
0.737
0.699
0.137
0.74

Batch of 5 sequences: report protein stability index for each.
1. TGVPNPSVAVMC
2. LLFSVLLLGVGF
3. VFFFFSLVNFRV
4. GCDVWCLVLRMG
5. VPRGAALIFLCF

OUTPUT:
[0.623, 0.472, 0.574, 0.684, 0.646]

* * *

# Tested on: Saccharomyces cerevisiae
# Test Details: protein stability index of tFT-peptide fusion (C-terminal peptide) (PSI (0-1 scale)); higher = more stable (slower turnover)
# Condition Description: genetic background: wild type; temperature: 30 C
Tag: true (1) if measured protein stability index is not below 0.7, false (0) if it is.

>>> classification("SGGRPVQSWCAW")
"true (1)"

INPUT: Could you verify whether the entry SRSWLPPVFPRV shows protein stability index of no less than 0.7?
OUTPUT: true (1)

INPUT: Does the reported protein stability index for WLVRRVSSGQFG fall at or above the 0.7 mark?
OUTPUT: false (0)

* * *

Please respond with reported protein stability index for every item in the list.
# Test system: Saccharomyces cerevisiae
# Test Details: protein stability index of tFT-peptide fusion (C-terminal peptide) (PSI (0-1 scale)); higher = more stable (slower turnover)
# Condition Description: genetic background: das1 deletion; temperature: 37 C
One number for each entry.

Some solved cases for reference:
>>> obs_value("RLCLLLCCRLWL")
0.565
>>> obs_value("VCRGWCVVRYIL")
0.723
>>> obs_value("CSLFFFRLIFTL")
0.339

Your task in this section: give protein stability index for each listed record.
1. WVVVLFAYRGLR
2. WFGCSTVWVRVQ
3. PPPPPPPSSSSL
4. WLLVVCRGLVFR
5. IIAGVWFLEILG

OUTPUT:
0.57
0.502
0.722
0.412
0.527

Please give protein stability index for each item listed below.
1. LFVGLVSFRIGA
2. GRGVRLRVRLLL
3. SGRKNQRILGLY
4. SFSFCCLLASFV
5. GCSVSLCCVFVV

OUTPUT:
1: 0.601; 2: 0.7; 3: 0.731; 4: 0.617; 5: 0.525

Hi team, please reply with protein stability index for each item in this list.
1. FLYFLLQFLCSG
2. RHAHPLTAQLPL
3. FYAAILCLLFSC
4. FLWLCLLSLFFR
5. SVFVVVVLVFWY
6. PWGVGLACLFLL

OUTPUT:
1. 0.597
2. 0.747
3. 0.546
4. 0.548
5. 0.33
6. 0.736

Recorded values, source the supplement of paper PMC10724198.
